test system: RPMI-8226 leukemia; test: NCI-60 one-dose screen, 48 h (100 = growth as untreated, 0 = no growth, -100 = all killed); conditions: 10 µM unless noted
The panel holds about 83,000 compounds, 20% with a hit somewhere; the sample as a whole holds those more often.
# Lookup of reported growth keyed by entry
metricName: growth (%)

[[record]]
compound = "Nc1cc(N)c2nc(NCCc3ccc(Cl)c(Cl)c3)cnc2c1"
system = "RPMI-8226 leukemia"
metricname = "growth"
measvalue = -48.9

[[record]]
compound = "Nc1nc2c(c3cnccc13)C(c1cccc(Br)c1)Cc1cnccc1-2 (configuration not stated)"
system = "RPMI-8226 leukemia"
metricname = "growth"
measvalue = -2.76

[[record]]
compound = "NCCCOc1cc(Cl)ccc1NC(=O)c1cc2ccccc2cc1OCCCN"
system = "RPMI-8226 leukemia"
metricname = "growth"
measvalue = -43.9

[[record]]
compound = "COc1ccc2cc(C(C)C(=O)Nc3ccc(S(=O)(=O)Nc4cc(C)on4)cc3)ccc2c1 (configuration not stated)"
system = "RPMI-8226 leukemia"
metricname = "growth"
measvalue = 96.6

[[record]]
compound = "CCOc1ccc(N(C)c2ccc(/C=C/C3=[N+](C)c4ccccc4C3(C)C)cc2)cc1"
system = "RPMI-8226 leukemia"
metricname = "growth"
measvalue = -20.3

[[record]]
compound = "CC(=O)c1ccc2c(c1)c1ccccc1n2C"
system = "RPMI-8226 leukemia"
metricname = "growth"
measvalue = 93.2

[[record]]
compound = "COc1ccc2c(c1)/C(=C1/S/C(=N/c3nnc(C)s3)NC1=O)C(=O)N2Cc1ccc(Br)cc1"
system = "RPMI-8226 leukemia"
metricname = "growth"
measvalue = 26.6

[[record]]
compound = "CC(=O)N1CCN(CCNC(=O)n2cc(-c3ccncc3)c(-c3cc(O)cc(Cl)c3)n2)CC1"
system = "RPMI-8226 leukemia"
metricname = "growth"
measvalue = 44.9

[[record]]
compound = "COc1cc2cc3cc4cc(OC)c(OC)cc4c(C)[n+]3cc2cc1OC (tested in a mixture with another compound)"
system = "RPMI-8226 leukemia"
metricname = "growth"
measvalue = 43

[[record]]
compound = "COc1ccccc1CNCCCN1C(=O)c2ccc3c4c(ccc(c24)C1=O)C(=O)N(CCCNCc1ccccc1OC)C3=O"
system = "RPMI-8226 leukemia"
metricname = "growth"
measvalue = -31.8

[[record]]
compound = "N#CCCCCCCCCCCC#N"
system = "RPMI-8226 leukemia"
metricname = "growth"
measvalue = 94.9

[[record]]
compound = "CCCCCCCCCC(C)NC(=O)CCl (configuration not stated)"
system = "RPMI-8226 leukemia"
metricname = "growth"
measvalue = 97.6

[[record]]
compound = "CCN(CC)CCCC(C)Nc1c(C)cnc2cc(Cl)c(C)cc12 (configuration not stated)"
system = "RPMI-8226 leukemia"
metricname = "growth"
measvalue = 43.6

[[record]]
compound = "CCCCCCNc1nc(N2CCOCC2)c2[nH]c(NCCCCCC)nc2n1"
system = "RPMI-8226 leukemia"
metricname = "growth"
measvalue = -44.4

[[record]]
compound = "CC(=O)NCCN"
system = "RPMI-8226 leukemia"
metricname = "growth"
measvalue = 105

[[record]]
compound = "CCc1c(C)c2ccc(OCC(=O)N=Nc3c(O)[nH]c4ccccc34)c(C)c2oc1=O"
system = "RPMI-8226 leukemia"
metricname = "growth"
measvalue = -3.81

[[record]]
compound = "CCN(CC)CCOC(=O)c1cccnc1"
system = "RPMI-8226 leukemia"
metricname = "growth"
measvalue = 91.4

[[record]]
compound = "COc1nc(OC)nc(-c2cc(-c3cc(OC)c(OC)c(OC)c3)no2)n1"
system = "RPMI-8226 leukemia"
metricname = "growth"
measvalue = 90.4

[[record]]
compound = "COC(=O)C1CC(=O)N(C(=O)Nc2ccc(Cl)cc2Cl)C1 (configuration not stated)"
system = "RPMI-8226 leukemia"
metricname = "growth"
measvalue = 98.9

[[record]]
compound = "CCCNC(=O)Oc1ccc(/C(=C(/CC)Cc2ccccc2)c2ccc(OCCN(CC)CC)cc2)cc1"
system = "RPMI-8226 leukemia"
metricname = "growth"
measvalue = 41.6

[[record]]
compound = "C[n+]1c2ccccc2c(Nc2ccc(NS(=O)(=O)CCCCN=C(N)N)cc2)c2ccc(N)cc21"
system = "RPMI-8226 leukemia"
metricname = "growth"
measvalue = 48.6

[[record]]
compound = "CCOc1nc(-c2ccccc2)cc2c(O)c(C(=O)N/N=C/c3ccccc3O)[nH]c(=O)c12"
system = "RPMI-8226 leukemia"
metricname = "growth"
measvalue = 99.3


---

tested on: NCI-H23 lung; assay: NCI-60 one-dose screen, 48 h (100 = growth as untreated, 0 = no growth, -100 = all killed); details: 10 µM unless noted
This is part of a sample that, as a whole, favours compounds with a hit. Of some 83,000 tested, about 20% had one in any assay.
metricName: growth (%)

[[record]]
compound = "CC[C@H](Nc1ncnc2nc[nH]c12)c1nc2cccc(NCc3ccc(C(=O)NO)o3)c2c(=O)n1-c1ccccc1"
measvalue = 98.1

[[record]]
compound = "CCOC(=O)c1ccc2n1CCCc1cnc(NC(C)=O)nc1-2"
measvalue = 112

[[record]]
compound = "CCOC1=C(Cl)C(=O)C(OCC)=C(Cl)C1=O"
measvalue = 107

[[record]]
compound = "C=C(C)C(C(=O)OCC)(C(=O)OCC)C(C)C"
measvalue = 114

[[record]]
compound = "O=C(Cc1ccccc1[N+](=O)[O-])c1ccc2c(c1)OCO2"
measvalue = 99.3

[[record]]
compound = "O=C(/C(Br)=C/c1ccccc1)c1ccccc1"
measvalue = 93.3


---

test system: 786-0 renal; assay: NCI-60 one-dose screen, 48 h (100 = growth as untreated, 0 = no growth, -100 = all killed); settings: 10 µM unless noted
The panel holds about 83,000 compounds, 20% with a hit somewhere; the sample as a whole holds those more often.
# growth values compiled below
metricName: growth (%)

[[record]]
compound = "CCCCCCCCCCCCCCCCC(=O)O.CCCCCCCCCCCCCCCCCC(=O)O.CCCCCCCCCCCCCCCCCC(=O)O.CCCCCCCCCCCCCCCCCC(=O)O.CCCCCCCCCCCCCCCCCC(=O)O.CO[CH-]OC12COC1CC(O)C1(C)C(O)C(OC(C)O)C3=C(C)C(OC(=O)C(O)C([NH-])c4ccccc4)CC(O)(C(OC(=O)c4ccccc4)C21)C3(C)C.[Cu+].[Zn].[Zn].[Zn].[Zn].[Zn] (stereo not given)"
measvalue = 41.7

[[record]]
compound = "NC(N)=N/N=C/c1cccc(Br)c1"
measvalue = 94.2

[[record]]
compound = "CC(C)C(=O)c1ccc(Cl)s1"
measvalue = 102

[[record]]
compound = "COC(=O)[C@@H]1[C@H](O)[C@H](C)[C@H](O)[C@H](C)/C=C\\C=C(C)C(=O)Nc2c(C)c(OC(C)=O)c3c(c2O)C(=O)C(C)=C2OCOC(=C23)C(C)=C[C@@](C)(O)[C@H](O)[C@@H](C)[C@H]1OC(C)=O"
measvalue = 111

[[record]]
compound = "C=CN(C)S(C)(=O)=O"
measvalue = 39.5

[[record]]
compound = "COC(=O)C(C)[C@H]1CC[C@@H]2[C@]1(C)CC=C1[C@]23C=C[C@]2(C[C@@H](OC(C)=O)CC[C@]12C)C(C(=O)OC)C3C(=O)OC (stereo not given in full)"
measvalue = 105

[[record]]
compound = "COc1ccc(CNCCCN2C(=O)c3ccc4c5c(ccc(c35)C2=O)C(=O)N(CCCNCc2ccc(OC)c(OC)c2OC)C4=O)c(OC)c1OC"
measvalue = -78.8

[[record]]
compound = "COc1ccc(Nc2c3ccccc3nc3ccccc23)cc1"
measvalue = 43.6

[[record]]
compound = "CC(=O)CC(=O)OC/C=C(/C)CCC=C(C)C"
measvalue = 104

[[record]]
compound = "N#Cc1c2cccnc2c2nnc3cc(Cl)c(Cl)cc3n12"
measvalue = 81.2

[[record]]
compound = "NNC(=S)N1N=C(c2cc3ccccc3o2)CC1c1c[nH]c2ccccc12 (stereo not given)"
measvalue = 22

[[record]]
compound = "Cc1ccc(NC(=O)CCl)cc1Cl"
measvalue = 117

[[record]]
compound = "COC(=O)c1ccc2[nH]c(O)c(C(=Nc3ccc(N(C)C(=O)CN4CCN(C)CC4)cc3)c3ccc(CCO)cc3)c2c1"
measvalue = 44.2

[[record]]
compound = "O=C(/C=C1\\C(=O)N(Cc2ccc([N+](=O)[O-])cc2)c2ccccc21)c1ccc(OCCN2CCCC2)cc1"
measvalue = 69.7

[[record]]
compound = "COC(=O)c1cc(=O)nc(N/N=C/c2ccccc2O)s1"
measvalue = 95.1

[[record]]
compound = "COCC(=O)NNc1[nH]c(-c2ccc(OC)cc2)cc1C#N"
measvalue = 95.3

[[record]]
compound = "OCCN1CCN(CC/C=C2/c3ccccc3Sc3ccc(C(F)(F)F)cc32)CC1"
measvalue = 71.2

[[record]]
compound = "FC(F)(F)c1cccc(-c2[nH]ncc2-c2nnnn2-c2ccccc2)c1"
measvalue = 58.2

[[record]]
compound = "CCOC(=O)NC1=NCC(C)(C)S1"
measvalue = 104

[[record]]
compound = "CC(=O)Oc1cc2ccccc2cc1C(C)C"
measvalue = 101

[[record]]
compound = "CC(O)CN(CCO)CCN(CCO)CC(C)O (stereo not given)"
measvalue = 94.6

[[record]]
compound = "CCN(CC)CCNc1ncnc2c1cnn2-c1ccc(Cl)cc1"
measvalue = 106

[[record]]
compound = "CCCCCCCCCC[N+](C)(C)N"
measvalue = 81.9

[[record]]
compound = "CC1=C(C)C(=O)C(C(C)C2=C(C)C(=O)C(C)=C(C)C2=O)=C(C)C1=O"
measvalue = 88.1

[[record]]
compound = "CCS(=O)(=O)N[C@@H]1O[C@H](COC(C)=O)C(OC(C)=O)[C@H](OC(C)=O)C1OC(C)=O (stereo not given in full)"
measvalue = 104

[[record]]
compound = "NC(N)=Nc1ccc(/C=C2\\C=Cc3ccccc32)cc1"
measvalue = 67.3

[[record]]
compound = "COC1NC(Cl)=C(C#N)C(C#N)(C#N)C1(C)C (stereo not given)"
measvalue = 87.2

[[record]]
compound = "CC1C(=O)CCCC1=O"
measvalue = 103

[[record]]
compound = "CCOC(=O)C1=C(C(F)(F)F)NC(=O)NC1CN1C(=O)c2ccccc2C1=O (stereo not given)"
measvalue = 104

[[record]]
compound = "COc1ccc(-c2nc(Nc3nc4ccccc4[nH]3)nc(N)c2C#N)cc1"
measvalue = 102

[[record]]
compound = "COc1cccc(CNC(=O)c2cccc(C3CC(=O)c4c(cc(OC)c(OC)c4OC)O3)c2)c1 (stereo not given)"
measvalue = 24.8

[[record]]
compound = "Cc1ccc([C@@H]2C[C@H](O)Cc3ccccc3N2)s1"
measvalue = 114

[[record]]
compound = "CCCCCCCCc1ccc(OCCOCC[N+](C)(C)CC)cc1 (tested in a mixture with another compound)"
measvalue = 87.8

[[record]]
compound = "O=C(/C(Br)=C/c1ccccc1)c1ccccc1"
measvalue = -90.5

[[record]]
compound = "COC(=O)C(C(=O)OC)C(Br)C(Br)C(Br)c1ccccc1 (stereo not given)"
measvalue = 96.3

[[record]]
compound = "CC(=O)O.[In]"
measvalue = 101

[[record]]
compound = "CCOC(=O)c1c(C)oc2ncnc(Nc3ccc(C(=O)NCCc4ccccc4)cc3)c12"
measvalue = 74.9

[[record]]
compound = "COC(=O)CC(=O)C(=O)OC"
measvalue = 95.2

[[record]]
compound = "O=C(Nc1cccc(Cn2c(=O)[nH]c3ccc(Oc4ncccn4)cc3c2=O)c1)c1ccc(Cl)cc1"
measvalue = 70.5

[[record]]
compound = "O=Nc1c(-c2c(O)[nH]c3cc(Br)ccc23)[nH]c2ccccc12"
measvalue = 6.13

